Data provenance: patent US12144869B2

Listing of entries alongside the reported TM2 (° C.).
testProtocol: Differential scanning fluorimetry (protein thermal shift; TM1/TM2)
Assay type: physicochemical
appliedConditions: Table 11; melting temperature of the Fab domain
Protocol: A protein thermal shift assay was carried out by mixing the protein to be assayed with an environmentally sensitive dye (SYPRO Orange, Life Technologies Cat #S-6650) in a phosphate buffered solution (PBS), and monitoring the fluorescence of the mixture in real time as it underwent controlled thermal denaturation. […] At the end of the experiment, the transition melting temperatures (TM1 and TM2) were determined using the Bio-Rad CFX manager software. […]
Answer format: numeric, °C implied, no suffix.

SRP2196-A02 (antibody, V domains shown) VH: EVQLVESGGGLVQPGGSLRLSCAASGFNITGYYIHWVRQAPGKGLEWVGQISPNSGATHDADSVKGRFTISADTSKNTAYLQMNSLRAEDTAVYYCARDSRRYVRGWDYWGQGTLVTVSS VL: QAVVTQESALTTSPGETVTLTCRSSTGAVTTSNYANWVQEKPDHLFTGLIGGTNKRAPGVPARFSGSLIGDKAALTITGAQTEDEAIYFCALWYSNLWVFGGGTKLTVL
71
SRP2196-B05 (antibody, V domains shown) VH: EVQLVESGGGLVQPGGSLRLSCAASGFNITGYYIHWVRQAPGKGLEWVGQISPNSGATYHADSVKGRFTISADTSKNTAYLQMNSLRAEDTAVYYCARDSRRYVRGWDYWGQGTLVTVSS VL: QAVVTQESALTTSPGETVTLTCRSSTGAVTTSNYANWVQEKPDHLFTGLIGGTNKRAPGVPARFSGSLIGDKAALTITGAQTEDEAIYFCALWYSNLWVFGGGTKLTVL
73
SRP2196-A03 (antibody, V domains shown) VH: EVQLVESGGGLVQPGGSLRLSCAASGFNITQYHIHWVRQAPGKGLEWVGYISPNSGSTHEADSVKGRFTISADTSKNTAYLQMNSLRAEDTAVYYCARDSRRYVRGWDYWGQGTLVTVSS VL: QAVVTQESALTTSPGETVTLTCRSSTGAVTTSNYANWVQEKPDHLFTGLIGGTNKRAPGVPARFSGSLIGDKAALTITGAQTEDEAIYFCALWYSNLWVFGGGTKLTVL
70

Item under review: SRP2196-B11 (antibody, V domains shown) VH: EVQLVESGGGLVQPGGSLRLSCAASGFNITGYYIHWVRQAPGRGLEWVGQISPNSGYTYYADSVKGRFTISADTSKNTAYLQMNSLRAEDTAVYYCARDSRRYIRSWDYWGQGTLVTVSS VL: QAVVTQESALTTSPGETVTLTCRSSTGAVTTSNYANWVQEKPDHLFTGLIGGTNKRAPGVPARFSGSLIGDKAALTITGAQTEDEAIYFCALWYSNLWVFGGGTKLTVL . Reported TM2 (° C.)?
74

Item under review: SRP2196-A05 (antibody, V domains shown) VH: EVQLVESGGGLVQPGGSLRLSCAASGFNITNYYIHWVRQAPGKGLEWVGYISPNSGATYQADSVKGRFTISADTSKNTAYLQMNSLRAEDTAVYYCARDSRRYVRSWDYWGQGTLVTVSS VL: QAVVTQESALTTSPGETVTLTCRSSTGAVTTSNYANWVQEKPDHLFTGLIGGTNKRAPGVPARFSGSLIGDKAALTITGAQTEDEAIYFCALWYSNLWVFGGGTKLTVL . Reported TM2 (° C.)?
71
